test: pKa value of toremifene; format: physicochemical
Experimental Endpoint: pKa

# input Endpoint output: pKa of CN(C)CCOc1ccc(/C(=C(/CCCl)c2ccccc2)c2ccccc2)cc1 . Value?
# output 8
